B1: library; numbered along this chain (parent)
chain: MNIQIGELAKRTACPVVTIRFYEQEGLLPPPGRSRGNFRLYGEEHVERLQFIRHCRSLDMPLSDVRTLLSYRKRPDQDCGEVNMLLDEHIRQVESRIGALLELKHHLVELREACSGARPAQSCGILQGLSDCVCDTRGTTAHPSD

variants of: B1; assay: sfGFP reporter fluorescence (15 h) (µM FITC); higher = stronger transcriptional activation; conditions: library round: Round 1; ligand: 30 µM Zn
Think of 0.4 as a floor: if sfGFP reporter fluorescence stands on it or above, it is satisfied; beneath it, not satisfied.

{"columns": ["seq", "class.label"],
 "data": [
  ["MNIQIGELAKRTACPVVTIRFYEQEGLLPPPGRSRGNFRLYGEEHVERLQFIRHCRSLDMPLSDVRTLLSYRKRPDQDCGEVNMLLDEHIRQVESRIGALLELVHHLVELDEACSGARPAQSCGILQGLSDCVCDTRGTTAHPSD [K104V R111D]", "not satisfied"]
]}

Does the reported sfGFP reporter fluorescence for MNIQIGELAKRTACPVVTIRFYEQEGLLPPPGRSRGNFRLYGEEHVERLQFIRHCRSLDMPLSGVRTLLSYRKRPDQDCGEVSMLLDEHIRQVESRIGALLELKHHLVELREACSGARPAQSCGILQGLSDCVCATRGTTAHPSD [D64G N83S D135A] fall at or above the 0.4 mark?
not satisfied

Does sfGFP reporter fluorescence meet or surpass 0.4 for MNIQIGELAKRTACPVVTIRFYEQEGLLPPPGRSRGNFRLYGEEHVERLQFIRHCRSLDMPLSDVRTLLSYRKRPDQDCGEVNMLLDEHIRQVESRIGALLELKHHLVELREACSGARPAQSCGILQAMSDCVCDTRGTTAHPSD [G128A L129M] ?
not satisfied

Would you say MNIQIGELAKRTACPVVTIRFYEQEGLLPPPGRSRGNFRLYGEEHVERLQFIRHCRSLDLPLSKVRTLLSYRKRPDQDCGEVNMLLDEHIRQVESRIGALLELKHHLVELREACSGARPAQSCGILQTLSDCVCATRGTTAHPSD [M60L D64K G128T D135A] shows sfGFP reporter fluorescence at minimum 0.4?
satisfied

Reported sfGFP reporter fluorescence reaches at least 0.4 for MNIQIGELAKRTACPVVTIRFYEQEGLLPPPGRSRGNFRLYGEEHVERLQFIRHCRSLDMNLSDVRTLLSYRKRPDQDCGEVNMLLDEHIRQVESRIGALLELKHHLVELREACSGARPAQSCGILQGLSDCVVDTRGTTAHPSD [P61N C134V] ?
satisfied

Tell me whether sfGFP reporter fluorescence is at least 0.4 here: MNIQIGELAKRTACPVVTIRFYEQEGLLPPPGRSRGNFRLYGEEHVERLQFIRHCRSLDMPLSDVRTLLSYRKRPDQDCGEVNMLLDEHIRQVESRIGALLELKHHCVQLREACSGARPAQSCGILQILSDCVCDTRGTTAHPSD [L107C E109Q G128I]
satisfied

Could you tell me if the measured sfGFP reporter fluorescence of MNIQIGELAKRTACPVVTIRFYEQEGLLPPPGRSRGNFRLYGEEHVERLQFIRHCRSLDMPLSDVRTLLSYRKRPDQDCGEVNMLLDEHIRQVESRIGALLELKHHLVELREACSGARPAQSCGILQGLSDCVCATRGTTAHTSD [D135A P143T] reaches 0.4 or more?
not satisfied
